Test system: 786-0
Experiment: NCI tumour cell line growth inhibition, 48 h
The source made the active and inactive calls. Rule as the data show it: active = GI50 up to about 1.1 µM and inactive = higher.
Outcomes you can answer with include only these: active, inactive

Sample answers from the record:
{"columns": ["Compound", "Subject of test", "Answer label"],
 "data": [
  ["C=C1C(=O)C=C[C@]2(C)CC[C@H]3C(=C)C(=O)O[C@@H]3[C@@H]12", "786-0", "active"],
  ["CC(NC(=O)Cc1ccccc1)NC(=O)C(C)C(=O)Nc1ccccc1 (stereo not given)", "786-0", "inactive"],
  ["COc1c(C)n(CCO)ccc1=O", "786-0", "inactive"],
  ["CCCCCCCCCCCCCC(=O)OCC(C[As](=O)(O)O)OC(=O)CCCCCCCCCCCCC (stereo not given)", "786-0", "inactive"],
  ["O=C1/C(=N\\NC(=S)NC2CCCCC2)c2cc([N+](=O)[O-])ccc2N1CN1CCOCC1", "786-0", "inactive"],
  ["O=C1OC(CS(=O)(=O)c2ccccc2)CC1O (stereo not given)", "786-0", "inactive"]
]}

Prompt line: Assay result, entry `COC(=O)c1cn(CCCCO)nn1` — outcome?
Response line: inactive

Prompt line: Assay result, entry CC(=O)C1=NN(c2ccccc2)C2(S1)SC(c1ccccc1)(c1ccccc1)c1ccccc12 (stereo not given) — outcome?
Response line: inactive

Prompt line: Assay result, entry N#CC1(C#N)NC(c2ccsc2)C(C#N)(C#N)NC1c1ccsc1 (stereo not given) — outcome?
Response line: inactive

Prompt line: Assay result, entry `CC1=CC[C@@H]2[C@@H](CC[C@@]2(C)O)C(C)(C)[C@H]1CC[C@@H]1[C@@]2(C)CCC(=O)C(C)(C)O[C@@H]2CC[C@]1(C)O` — outcome?
Response line: inactive

----------
System: OVCAR-8
Experiment: NCI tumour cell line growth inhibition, 48 h
The source made the active and inactive calls. Cut-off read from the data, not from the text of the source: active = GI50 up to about 1.1 µM and inactive = higher.
Property: GI50

Prompt line: Please report the recorded GI50 for O=C(CC(=O)N1N=C(N2CCCCC2)CC1c1ccccc1)Nc1ccccc1 (stereo unspecified) .
Response line: > 100 µM (inactive)

Prompt line: Please report the recorded GI50 for COc1ccc(C2c3cc4c(cc3OC(N3CCCCC3)C2C)OCO4)cc1 (stereo unspecified) .
Response line: > 100 µM (inactive)

Prompt line: Please report the recorded GI50 for `Cc1cc(N2CCCCC2)nc2ccc(Cc3ccc4nc(N5CCCCC5)cc(C)c4c3)cc12` .
Response line: > 100 µM (inactive)

----------
System: 786-0
Test: NCI tumour cell line growth inhibition, 48 h
The source made the active and inactive calls. Cut-off read from the data, not from the text of the source: active = GI50 up to about 1.1 µM and inactive = higher.
The entries below come with measured GI50 values attached.

Some compounds with known GI50 results, for comparison:
{"columns": ["Compound", "GI50"],
 "data": [
  ["O=C1C=C(Nc2ccc(Cl)cc2Cl)c2ccccc2C1=O", "78.5 µM (inactive)"],
  ["COc1cc([C@@H]2c3cc4c(cc3[C@@H](NC(=O)c3cccc(C#N)c3)C3COC(=O)[C@@H]32)OCO4)cc(OC)c1O (stereo not given in full)", "0.703 µM (active)"],
  ["CC1(C)OC1COc1c2occc2cc2ccc(=O)oc12 (stereo not given)", "> 100 µM (inactive)"],
  ["NC(Cc1cc(I)c(Oc2ccc(O)c(I)c2)c(I)c1)C(=O)O (stereo not given) [RATHYRONINE]", "> 100 µM (inactive)"]
]}

Okay, now this compound:
Prompt line: Please report the recorded GI50 for `Nc1ccc2c(c1)C(=O)N(OS(=O)(=O)c1ccccc1)C2=O` .
Response line: > 100 µM (inactive)
